Assay: oxidation potential E1 by cyclic voltammetry
Assay type: physicochemical
Conditions: Table A; 80%/20% acetonitrile/water, 0.1M lithium perchlorate, 25° C.
Observable: Oxidation Potential of X--Y, E1 (V vs SCE)

Molecule	Observable	Value unit	Measured
CC(C(=O)O)N(C)c1ccc(C(=O)O)cc1 (centres unmarked)	Oxidation Potential of X--Y, E1	V vs SCE	0.54
COc1ccc(N(CC(=O)O)CC(=O)O)cc1	Oxidation Potential of X--Y, E1	V vs SCE	0.38
CCN(c1cccc(C(N)=O)c1)C(C)C(=O)O (centres unmarked)	Oxidation Potential of X--Y, E1	V vs SCE	0.52
COc1ccc(N(CC(=O)O)CC(=O)O)cc1OC	Oxidation Potential of X--Y, E1	V vs SCE	0.36
CCCCN(c1ccccc1)C(C)C(=O)O (centres unmarked)	Oxidation Potential of X--Y, E1	V vs SCE	0.43
CCOC(=O)c1ccc(NC(C)C(=O)O)cc1 (centres unmarked)	Oxidation Potential of X--Y, E1	V vs SCE	0.61
O=C(O)CC(Nc1ccc(C(=O)O)cc1)C(=O)O (centres unmarked)	Oxidation Potential of X--Y, E1	V vs SCE	0.61
O=C(O)CN(CC(=O)O)c1ccccc1	Oxidation Potential of X--Y, E1	V vs SCE	0.54
CC(Nc1ccc(Cl)cc1)C(=O)O (centres unmarked)	Oxidation Potential of X--Y, E1	V vs SCE	0.51
Cn1cc(C(O)C(=O)O)c2ccccc21 (centres unmarked)	Oxidation Potential of X--Y, E1	V vs SCE	0.61
CC(C(=O)O)c1cn(C)c2ccccc12 (centres unmarked)	Oxidation Potential of X--Y, E1	V vs SCE	0.64

###

Assay: Example 11: photographic sensitivity and fog, color format, blue sensitized emulsion T-2
Conditions: 0.44 x10^-3 mol/molAg; control=100
Structures can show the parent of a compound that is named as a salt.

Compound	Photographic Sensitivity SWR2B
CCSCCN(c1ccc(C(=O)O)cc1)C(C)C(=O)O (stereo not shown)	178
CCSCCN(c1ccccc1)C(CC(=O)O)C(=O)O (stereo not shown)	178
CCSCCN(c1cccc(C(N)=O)c1)C(C)C(=O)O (stereo not shown)	209
CCSCCN(c1ccc(Cl)cc1)C(C)C(=O)O (stereo not shown) [Compound S-12, sodium salt]	204

###

Assay: oxidation potential E1 by cyclic voltammetry
Assay type: physicochemical
Conditions: Table A; 80%/20% acetonitrile/water, 0.1M lithium perchlorate, 25° C.

Molecule	Value unit	Oxidation Potential of X--Y, E1
O=C(O)COc1ccccc1N(CC(=O)O)CC(=O)O	V vs SCE	0.65
O=C(O)CC(Nc1ccccc1)C(=O)O (centres unmarked)	V vs SCE	0.60
CCN(CC)c1ccc(C(O)C(=O)O)cc1 (centres unmarked)	V vs SCE	0.50
COc1ccc(C(O)C(=O)O)cc1OC (centres unmarked)	V vs SCE	0.91
CCCCN(c1ccccc1)C(CC(=O)O)C(=O)O (centres unmarked)	V vs SCE	0.48
CCCCN(c1ccc(C)cc1)C(C)C(=O)O (centres unmarked)	V vs SCE	0.34
Nc1nc(C(O)C(=O)O)cs1 (centres unmarked)	V vs SCE	0.80
Cc1ccc(NC(CC(=O)O)C(=O)O)cc1 (centres unmarked)	V vs SCE	0.52
CCC(C)c1ccc(N(CC(=O)O)C(C)C(=O)O)cc1 (centres unmarked)	V vs SCE	0.47
Cc1ccc(NC(C)C(=O)O)cc1 (centres unmarked)	V vs SCE	0.44
COc1ccc(N(CC(=O)O)C(C)C(=O)O)cc1 (centres unmarked)	V vs SCE	0.36

The values you see were collected from patent US5747235A.
